System: panel of cancer cell lines
Procedure Text: Cell viability (CellTiter-Glo) dose-response across cancer cell line panel;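 also: after 72 h compound incubation with CellTiter-Glo ATP readout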
Type: cell-based, human
Condition Notes: Homo sapiens, NCI-H23, NCI-H23 cells
Test Readout: EC50 (µM)
Your answer is read as µM, so omit the unit and give the number.

q: Value lookup for EC50; key = COCc1ccccc1NCc1ccc([C@@H]2[C@H](O)CCCc3cncn32)c(-c2ccccc2Cl)c1 [CSN5i-2e]
a: 23.9

* * *

System: panel of cancer cell lines
Procedure Text: Cell viability (CellTiter-Glo) dose-response across cancer cell line panel;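 also: after 72 h compound incubation with CellTiter-Glo ATP readout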
Assay type: cell-based, human
Condition Notes: Homo sapiens, Hs 944.T
Test Readout: EC50 (nM)
Please respond with the number in nM and leave the unit unwritten.

Solved cases (2 shown):
{"columns": ["Compound Structure", "EC50 (nM)"],
 "data": [
  ["COCc1ccccc1NCc1ccc([C@H]2[C@@H](O)CCCc3cncn32)c(-c2ccccc2Cl)c1", 778],
  ["NS(=O)(=O)OC[C@@H]1C[C@@H](n2ccc3c(N[C@H]4CCc5ccccc54)ncnc32)C[C@@H]1O", 898]
]}

q: Item CC(C)C[C@H](NC(=O)[C@H](Cc1ccccc1)NC(=O)c1cnccn1)B(O)O has what recorded EC50?
a: 12.7
